biological target: SARS-COV-2 RBD extracellular domain expressed with a C-terminal myc-myc-hexahistidine tag (SARS-CoV-2); assay: SPR (Biacore), mAb captured by anti-human Fc, RBD-mmH in solution, 25 C
Here, each record is paired with measured koff data.
measuredMetric: koff

* mAb15150 (antibody, V domains shown) VH: EVQLVETGGGLIQPGGSLRLSCAAPGFIVSSNYMSWVRQAPGKGLEWVSLLYPGGSTYYADSVKGRFTISRDNSKNTLYLQMNSLRADDTAVYYCARVLPIVEDHFDYWGQGTLVTVSS VL: DIQLTQSPSFLSASVGDRVTITCRASQGMSSYLAWYQKKPGKAPKLLIYGATILQSGVPSRFSGSGSGTEFTLTISSLQPEDFATYYCQQLNSDPLYMYTFGQGTKLEIKR | 4.61e-05 s⁻¹
* mAb14282 (antibody, V domains shown) VH: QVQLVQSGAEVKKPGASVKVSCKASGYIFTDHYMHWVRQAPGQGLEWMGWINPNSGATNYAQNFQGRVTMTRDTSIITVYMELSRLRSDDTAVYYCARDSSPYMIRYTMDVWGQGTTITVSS VL: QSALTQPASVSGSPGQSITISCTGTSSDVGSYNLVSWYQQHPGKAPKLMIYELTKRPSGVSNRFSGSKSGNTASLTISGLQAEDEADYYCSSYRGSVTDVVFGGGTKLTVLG | 0.00957 s⁻¹
* mAb15163 (antibody, V domains shown) VH: EVQLVETGGGLIQPGESLRLSCAASGFIVSTNYMNWVRQAPGKGLEWVSVIYRGGSTYYADSVKGRFTISRDNSKNTLFLQMNSLRAEDTAVYYCARGHEDFDYDTPASGAFDIWGQGTMVTVSS VL: QSALTQPPSASGSPGQSVTISCTGTSSDVGGHNYVSWYQQHPGKAPKVMIYEVSKRPSGVPDRFSGSKSGNTASLTVSGLQAEDEADYYCSSYAGSNKFVFGTGTKVTVLG | 1.67e-05 s⁻¹
